Attribution: patent US8674111B2

I'd be grateful if you could share measured EC50 for these entries.
molecular target: recombinant human ALX receptor (Homo sapiens, UniProt P25090); assay: Intracellular calcium measurements (FLIPR), ALX receptor agonistic activity; settings: HEK293-hALXR-Gα16 cells; Fluo-4 calcium fluorescence; normalized to WKYMVm 10 nM
Sequence (P25090 whole entry): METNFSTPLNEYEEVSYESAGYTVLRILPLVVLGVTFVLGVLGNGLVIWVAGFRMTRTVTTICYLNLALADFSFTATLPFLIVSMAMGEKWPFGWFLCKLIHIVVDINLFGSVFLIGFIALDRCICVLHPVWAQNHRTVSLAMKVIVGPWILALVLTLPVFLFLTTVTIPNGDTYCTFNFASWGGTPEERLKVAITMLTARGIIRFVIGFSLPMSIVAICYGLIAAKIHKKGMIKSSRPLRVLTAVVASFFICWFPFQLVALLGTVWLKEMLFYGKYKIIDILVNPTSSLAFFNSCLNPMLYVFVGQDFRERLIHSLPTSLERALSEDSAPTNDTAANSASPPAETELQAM
Output spec: scalar in nM, unitless text.

Input: What does the record list as EC50 for CC(=O)c1ccn(Cc2nc(NC(=O)OCc3ccc(C(F)(F)F)cc3)co2)n1 ?
Output: 12

Input: What would you report for CC(=O)CCCCc1nc(NC(=O)OCc2ccccc2Cl)co1 ?
Output: 0.3

Input: What would you report for CCc1nc(C(=O)Nc2coc(CCCCC(C)=O)n2)c(-c2ccccc2)o1 ?
Output: 3.2

Input: What would you report for CC(=O)c1cccc(Cc2nc(NC(=O)/C=C/c3ccc(C(F)(F)F)cc3)co2)c1 ?
Output: 1310

Input: What would you report for COc1cccc(COC(=O)Nc2coc(Cn3ccc(C(C)=O)n3)n2)c1 ?
Output: 1

Input: What would you report for CC(=O)CCCCc1nc(NC(=O)c2nc(C)oc2-c2cccc(C)c2)co1 ?
Output: 9.8

Input: What would you report for CC(=O)c1ccc(Cc2nc(NC(=O)c3nc(C)oc3-c3cccc(C)c3)cs2)o1 ?
Output: 216

Input: What would you report for CC(=O)c1ccn(Cc2nc(NC(=O)OCc3ccccc3Cl)co2)n1 ?
Output: 0.7

Input: What would you report for CC(=O)c1ccn(Cc2nc(NC(=O)OCc3ccc(F)cc3Cl)co2)n1 ?
Output: 0.5

Input: What would you report for CC(=O)CCCCc1nc(NC(=O)c2ncoc2-c2ccc(F)cc2)co1 ?
Output: 86

Input: What would you report for CC(=O)CCCCc1nc(NC(=O)c2ncsc2-c2cccc(F)c2)co1 ?
Output: 784

Input: What would you report for CC(=O)c1ccc(Cc2nc(NC(=O)c3ncoc3-c3ccccc3)cs2)s1 ?
Output: 1570

###

biological target: recombinant human ALX receptor (Homo sapiens); test: Intracellular calcium measurements (FLIPR), ALX receptor agonistic activity; details: HEK293-hALXR-Gα16 cells; Fluo-4 calcium fluorescence; normalized to WKYMVm 10 nM
I'd be grateful if you could share measured pEC50 for these entries.
Recall that pEC50 is obtained by taking minus log10 of the concentration measured in molar.

Input: What does the record list as pEC50 for CC(F)(F)CCCCc1nc(NC(=O)OCc2ccccc2Cl)co1 ?
Output: 7.89

Input: What would you report for CC(=O)c1ccc(Cc2nc(NC(=O)c3ncoc3-c3ccccc3)cs2)o1 ?
Output: 7.21

Input: What would you report for CC(=O)c1ccn(Cc2nc(NC(=O)c3nc(C4CC4)sc3-c3ccccc3)co2)n1 ?
Output: 5.18

Input: What would you report for CC(=O)c1cccc(Cc2nc(NC(=O)OCc3cccc(OC(F)(F)F)c3)co2)c1 ?
Output: 7.32

Input: What would you report for O=C(Nc1coc(Cn2cc(Br)cn2)n1)OCc1ccccc1Cl ?
Output: 7.14

Input: What would you report for CC(=O)c1ccc(Cc2nc(NC(=O)OCc3ccccc3Cl)co2)s1 ?
Output: 8.66

Input: What would you report for CC(=O)c1ccc(Cc2nc(NC(=O)c3nc(C)oc3-c3cccc(Cl)c3)cs2)s1 ?
Output: 5.44

Input: What would you report for CC(=O)CCCCc1nc(NC(=O)c2ncoc2-c2ccccc2)co1 ?
Output: 7.74

Input: What would you report for Cc1cccc(-c2oc(C)nc2C(=O)Nc2coc(CCCCC(C)(F)F)n2)c1 ?
Output: 6.71
